B1: TMEM106C (parent)
chain: TVPEILVHNIVIFMRTSVKISYIG

Variants of: B1
Assay: protein stability index of a GFP-peptide fusion (GPS, HEK-293T) (PSI 1-6); higher = more stable;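 further: lentivirally expressed fusions sorted by FACS into six bins by GFP to DsRed ratio, PSI derived from sequencing read proportions per bin multiplied by bin number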
Conditions: c terminus: a fixed tail appended
Can you tell me protein stability index for the items I'm about to list?
Please reply with the value in numeric form only.

Ask: Annotate the variant I5N with its measured protein stability index.
Reply: 2.34

Ask: Quick one: give measured protein stability index for V18L
Reply: 4.24

Ask: # return recorded protein stability index for input N9S
Reply: 2.31

Ask: In one line, give reported protein stability index of the entry V2Y .
Reply: 3.53

Ask: Give a short answer stating reported protein stability index for N9R .
Reply: 2.94

Ask: Look up and report measured protein stability index for this entry: E4G
Reply: 3.29

Ask: Answer with the recorded protein stability index for the variant listed here: I12N
Reply: 3.08

Ask: // Input: L6C . Output its protein stability index only.
Reply: 4.05

Ask: Determine its reported protein stability index: G24F
Reply: 3.89

Ask: Complete the entry with protein stability index for L6G
Reply: 3.13

Ask: Return value of protein stability index for input M14L , no commentary.
Reply: 3.05

Ask: Quick one: give measured protein stability index for S17F
Reply: 4.33

Ask: Identify protein stability index associated with the variant K19S
Reply: 3.4

Ask: Hello, please tell me recorded protein stability index for this one: T16E
Reply: 2.54

Ask: Using the record for V2P , state its measured protein stability index.
Reply: 3.94

Ask: Indicate its recorded protein stability index; the variant in question is I23R
Reply: 2.81

Ask: Give a short answer stating reported protein stability index for I10R .
Reply: 2.42

Ask: Using known records, supply protein stability index for I20T
Reply: 3.24

Ask: Using known records, supply protein stability index for S17W
Reply: 3.7

Ask: Name the recorded protein stability index of the item V7D in your answer.
Reply: 2.53

Ask: Give the reported value of protein stability index for this record: K19N
Reply: 3.38

Ask: Report protein stability index for G24M
Reply: 3.57

Ask: Please report the measured protein stability index for Y22M
Reply: 3.99

Ask: Quote protein stability index reported for L6R please.
Reply: 4.09

Ask: Quickly give me recorded protein stability index for I12Q
Reply: 2.11

Ask: Return value of protein stability index for input V18D , no commentary.
Reply: 2.15

Ask: Given the variant R15A , write its reported protein stability index.
Reply: 2.33

Ask: For the variant P3N , report protein stability index.
Reply: 1.33

Ask: Specify protein stability index for V18E and stop.
Reply: 2.77

Ask: Using known records, supply protein stability index for I20K
Reply: 3.3

Ask: Give protein stability index for P3C
Reply: 2.32

Ask: Recall and state the measured protein stability index for I20A .
Reply: 2.52

Ask: Supply recorded protein stability index for I23Q here.
Reply: 4.15

Ask: Answer with the recorded protein stability index for the variant listed here: T16R
Reply: 2.5

Ask: Identify measured protein stability index associated with I10V
Reply: 2.92

Ask: Return reported protein stability index. Input variant: V18N
Reply: 3.44

Ask: Using the record for S21Q , state its measured protein stability index.
Reply: 2.04

Ask: For V7W , write its protein stability index.
Reply: 3.68

Ask: Input I12W , output reported protein stability index.
Reply: 2.08

Ask: For the variant I5W , give its measured protein stability index value.
Reply: 2.49

Ask: Input I23F , output reported protein stability index.
Reply: 3.86

Ask: Give me measured protein stability index, please, for this variant: G24S
Reply: 3.61

Ask: Find the measured protein stability index of V18Q and report it.
Reply: 3.31

Ask: Specify protein stability index for Y22A and stop.
Reply: 3.58

Ask: Complete the entry with protein stability index for N9Q
Reply: 2.95

Ask: Look up and state reported protein stability index for S21E
Reply: 3.24

Ask: Provide one value: measured protein stability index of L6N
Reply: 2.24

Ask: Read the entry V18T and write its reported protein stability index.
Reply: 3.66

Ask: Find the measured protein stability index of K19C and report it.
Reply: 4.43

Ask: Supply protein stability index value. Item: V2D
Reply: 2.5

Ask: Name the recorded protein stability index of the variant listed here: H8F
Reply: 3.98

Ask: Indicate the recorded protein stability index value for this variant: H8K
Reply: 3.34

Ask: Please report the measured protein stability index for F13Q
Reply: 2.96

Ask: Let me know recorded protein stability index for M14D , thanks.
Reply: 3.11

Ask: Give the value of protein stability index reported for the following: S17G
Reply: 2.1

Ask: Quickly give me recorded protein stability index for S17A
Reply: 4.19

Ask: Recall and state the measured protein stability index for S21F .
Reply: 3.13

Ask: Please report protein stability index for the following variant: S17K
Reply: 4.27

Ask: Determine from records and report protein stability index for E4N
Reply: 2.99

Ask: Find the measured protein stability index of I23N and report it.
Reply: 3.26

Ask: Give the value of protein stability index reported for the following: I5R
Reply: 2.19

Ask: Quick one: give measured protein stability index for M14K
Reply: 3.19

Ask: Please list protein stability index recorded for the variant V7T
Reply: 2.15

Ask: Provide protein stability index value for the following variant: R15Q
Reply: 2.73

Ask: Using the record for P3R , state its measured protein stability index.
Reply: 3.41

Ask: Complete the entry with protein stability index for Y22K
Reply: 2.86

Ask: // Input: I10E . Output its protein stability index only.
Reply: 3.64

Ask: Supply protein stability index value. Item: I5Y
Reply: 2.58

Ask: Consider the variant I5G and give its recorded protein stability index.
Reply: 2.54

Ask: Determine its reported protein stability index: R15S
Reply: 3.18

Ask: Respond only with protein stability index recorded for I23M
Reply: 3.06

Ask: Consider the variant E4K . State its measured protein stability index.
Reply: 2.94

Ask: Give a short answer stating reported protein stability index for T1S .
Reply: 3.42

Ask: Return protein stability index (reported value) for this variant: I12Y
Reply: 3.05

Ask: Answer with the recorded protein stability index for the variant listed here: V11H
Reply: 3.13

Ask: Give reported protein stability index value for T16Y
Reply: 3.88

Ask: Assign protein stability index to the following record: F13E
Reply: 2.27

Ask: Given the variant P3A , write its reported protein stability index.
Reply: 3.18

Ask: Item S21K : provide protein stability index
Reply: 2.53

Ask: State its protein stability index for this variant: I5D
Reply: 3.24

Ask: Report protein stability index for I5M
Reply: 2.67

Ask: Recall and state the measured protein stability index for N9I .
Reply: 2.82

Ask: Output protein stability index of Y22C
Reply: 2.5

Ask: Fill in reported protein stability index for this entry: V7G
Reply: 3.49

Ask: Report protein stability index for Y22Q
Reply: 3.85

Ask: Specify protein stability index for S17N and stop.
Reply: 3.88

Ask: Entry V11M needs its protein stability index filled in; supply it.
Reply: 2.77

Ask: Item F13P : provide protein stability index
Reply: 3.22

Ask: # return recorded protein stability index for input I5H
Reply: 4.38

Ask: Read the entry R15L and write its reported protein stability index.
Reply: 3.26

Ask: Entry I20P needs its protein stability index filled in; supply it.
Reply: 3.39
